TESTED ON: Parathyroid hormone/parathyroid hormone-related peptide receptor (Homo sapiens)
Sequence (Q03431 whole entry): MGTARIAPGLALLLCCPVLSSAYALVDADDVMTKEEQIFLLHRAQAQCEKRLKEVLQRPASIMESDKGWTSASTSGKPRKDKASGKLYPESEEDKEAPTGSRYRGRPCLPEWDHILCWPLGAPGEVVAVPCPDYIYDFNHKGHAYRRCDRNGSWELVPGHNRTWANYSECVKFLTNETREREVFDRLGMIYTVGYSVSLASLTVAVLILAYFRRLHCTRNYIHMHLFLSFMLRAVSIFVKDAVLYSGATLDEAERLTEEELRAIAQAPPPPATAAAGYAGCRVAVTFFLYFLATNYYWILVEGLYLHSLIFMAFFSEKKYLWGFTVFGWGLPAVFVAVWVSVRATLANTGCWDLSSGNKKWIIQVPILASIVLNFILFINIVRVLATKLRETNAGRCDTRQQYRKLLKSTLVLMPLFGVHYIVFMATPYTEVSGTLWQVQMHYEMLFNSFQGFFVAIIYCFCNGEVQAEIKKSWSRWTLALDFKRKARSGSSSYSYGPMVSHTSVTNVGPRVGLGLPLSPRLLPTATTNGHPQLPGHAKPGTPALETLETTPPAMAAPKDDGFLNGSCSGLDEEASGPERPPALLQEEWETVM
PROTOCOL TEXT: Displacement of [125I]DPC-AJ1951 from PTH/PTH-related peptide receptor expressed in HKRK-B28 cells
Format: cell-based
Square brackets hold non-standard residues; d marks the D form. Peptide text beside a SMILES is read from it. * marks the point of attachment. X1 = O=C(c1ccccc1-c1c2ccc(=O)cc-2oc2cc(O)ccc12)*; hArg = N=C(N)NCCCC[C@H](N)C(=O)O; Nle = CCCC[C@H](N)C(=O)O; Aib = CC(C)(N)C(=O)O
Overview of recorded pIC50 for various molecules
In plain terms, pIC50 is the concentration in mol/L turned into minus its base-10 logarithm.

Previously resolved entries follow.
MOLECULE	TESTED ON	RECORDED ENDPOINT	TEST RESULT
CCCC[C@H](NC(=O)[C@H](CC(C)C)NC(=O)[C@H](CCC(N)=O)NC(=O)[C@@H](NC(=O)[C@H](CCC(=O)O)NC(=O)[C@H](C)NC(=O)[C@@H](NC(=O)[C@H](C)N)C(C)C)[C@@H](C)CC)C(=O)N[C@@H](Cc1cnc[nH]1)C(=O)N[C@@H](CCC(N)=O)C(=O)N[C@@H](CCCCNC(=N)N)C(=O)N[C@@H](C)C(=O)N[C@@H](CCCCN)C(=O)N[C@@H](Cc1ccc(O)cc1)C(N)=O (H-AVAEIQL[Nle]HQ[hArg]AKY-NH2)	Parathyroid hormone/parathyroid hormone-related peptide receptor (Homo sapiens)	pIC50	4.98
CC[C@H](C)[C@H](NC(=O)[C@H](CCC(=O)O)NC(=O)[C@H](C)NC(=O)[C@@H](NC(=O)[C@H](C)N)C(C)C)C(=O)N[C@@H](CCC(N)=O)C(=O)N[C@@H](CC(C)C)C(=O)N[C@@H](CCSC)C(=O)N[C@@H](Cc1cnc[nH]1)C(=O)N[C@@H](CCC(N)=O)C(=O)N[C@@H](CCCCN=C(N)N)C(=O)N[C@@H](C)C(=O)N[C@@H](CCCCN)C(=O)N[C@@H](Cc1c[nH]c2ccccc12)C(N)=O (H-AVAEIQLMHQ[hArg]AKW-NH2)	Parathyroid hormone/parathyroid hormone-related peptide receptor (Homo sapiens)	pIC50	4.98

# return pIC50 for CCCC[C@H](NC(=O)[C@H](CC(C)C)NC(=O)[C@H](CCC(N)=O)NC(=O)[C@@H](NC(=O)[C@H](CCC(=O)O)NC(=O)C(C)(C)NC(=O)[C@@H](NC(=O)C(C)(C)N)C(C)C)[C@@H](C)CC)C(=O)N[C@@H](Cc1cnc[nH]1)C(=O)N[C@@H](CCC(N)=O)C(=O)N[C@@H](CCCNC(=N)N)C(=O)N[C@@H](C)C(=O)N[C@@H](CCCCNC(=O)c1ccccc1-c1c2ccc(=O)cc-2oc2cc(O)ccc12)C(=O)N[C@@H](Cc1ccc(O)cc1)C(N)=O (H-[Aib]V[Aib]EIQL[Nle]HQRAK(X1)Y-NH2) , test system: Parathyroid hormone/parathyroid hormone-related peptide receptor (Homo sapiens)
7.87
